Multi-source literature compilation: IC50 on Tyrosine-protein kinase JAK1 (Homo sapiens, UniProt P23458).

CN(C)C(=O)c1coc(-c2cnc3[nH]ccc3c2N[C@@H]2CCCN(C(=O)CC#N)C2)n1 : ≤ 10 nM
Cc1ccc(NC(=O)N2CCC(N3CC(CC#N)(n4cc(-c5ncnc6[nH]ccc56)cn4)C3)CC2)c(F)n1 : ≤ 5 nM
Cc1ccc(NC(=O)c2cc(C(F)(F)F)ccc2C(F)(F)F)cc1-c1ccc2c(c1)[nH]c1ncncc12 : ≤ 500 nM
O=C(NCCC(F)(F)F)c1nn(Cc2ccncc2)c2c1CN(c1ncnc3[nH]ccc13)CC2 : 100 to 500 nM

Identify the measured IC50 of Nc1cc2ccc1-c1ccnc(n1)Nc1ccc(N3CCOCC3)c(c1)COCCCCCCNC2=O for Tyrosine-protein kinase JAK1 (Homo sapiens, UniProt P23458).
1000 to 10000 nM

Identify the measured IC50 of CC(=O)Nc1cc2c(N[C@@H]3CC[C@@](C)(O)C3(C)C)c(C(N)=O)cnn2c1 (racemic) for Tyrosine-protein kinase JAK1 (Homo sapiens, UniProt P23458).
8.2 nM

Identify the measured IC50 of O=C(Nc1ccc(F)c(-c2ccc3c(c2)[nH]c2ncncc23)c1)c1cccc(C(F)(F)F)c1 for Tyrosine-protein kinase JAK1 (Homo sapiens, UniProt P23458).
≤ 500 nM

Identify the measured IC50 of CN1CC(c2nc3cnc4ccsc4c3n2[C@H]2CC[C@H](CC#N)CC2)C1 for Tyrosine-protein kinase JAK1 (Homo sapiens, UniProt P23458).
≤ 1000 nM

Identify the measured IC50 of N#CCC(=O)N1CCC[C@@H](Nc2c(-c3ccn(C(F)F)n3)cnc3[nH]ccc23)C1 for Tyrosine-protein kinase JAK1 (Homo sapiens, UniProt P23458).
≤ 10 nM

Identify the measured IC50 of CC(C)COc1ccc2cc1COc1ccc(cc1)NC(=O)c1ccc(c(N)c1)-c1ccnc(n1)N2 for Tyrosine-protein kinase JAK1 (Homo sapiens, UniProt P23458).
1000 to 10000 nM

Identify the measured IC50 of Cc1ccsc1C(=O)N1CCC2(CCC(N(C)c3ncnc4[nH]ccc34)CC2)CC1 for Tyrosine-protein kinase JAK1 (Homo sapiens, UniProt P23458).
100 to 1000 nM

Identify the measured IC50 of Cc1cnc2nc1Nc1cc(ccc1O)CCNC(=O)c1ccc(cc1)-c1cnc(F)c(c1)N2 for Tyrosine-protein kinase JAK1 (Homo sapiens, UniProt P23458).
11 to 100 nM

Identify the measured IC50 of CN(C)Cc1cc(C(=O)N2CCC(N3CC(CC#N)(n4cc(-c5ncnc6[nH]ccc56)cn4)C3)CC2)c(F)c(C(F)(F)F)n1 for Tyrosine-protein kinase JAK1 (Homo sapiens, UniProt P23458).
≤ 5 nM

Identify the measured IC50 of Cc1cc(Nc2nn([C@@H]3CCC[C@H]3C#N)cc2C(N)=O)cc2c1OB(O)C=C2 (relative stereo) for Tyrosine-protein kinase JAK1 (Homo sapiens, UniProt P23458).
< 10 nM

Identify the measured IC50 of CC1CCOCc2cc(ccc2OCC2CCOC2)Nc2nccc(n2)-c2ccc(cc2[N+](=O)[O-])C(=O)NC1 (stereo not drawn) for Tyrosine-protein kinase JAK1 (Homo sapiens, UniProt P23458).
1000 to 10000 nM

Identify the measured IC50 of Cc1cnc(Nc2cnn(C)c2)nc1C1CC(C)(NC(=O)[C@@H]2CC2(F)F)C1 (stereo partly drawn) for Tyrosine-protein kinase JAK1 (Homo sapiens, UniProt P23458).
< 5 nM

Identify the measured IC50 of Cn1cnc2cc(Nc3ncc(Cl)c(NC4CCN(c5ccc(C#N)cn5)CC4)n3)ccc21 for Tyrosine-protein kinase JAK1 (Homo sapiens, UniProt P23458).
< 0.3 nM

Identify the measured IC50 of CCC1=C(CC)c2cc(Nc3nn([C@@H]4COCC[C@H]4C#N)cc3C(N)=O)ccc2OB1O (relative stereo) for Tyrosine-protein kinase JAK1 (Homo sapiens, UniProt P23458).
< 10 nM

Identify the measured IC50 of CC(C)(O)Cn1nnc2cc(Nc3ncc(Cl)c(NC4CCN(c5ccc(C#N)nn5)CC4)n3)ccc21 for Tyrosine-protein kinase JAK1 (Homo sapiens, UniProt P23458).
0.4 nM
